B1: library; a variant is named by its letters at N, in order (parent)
chain: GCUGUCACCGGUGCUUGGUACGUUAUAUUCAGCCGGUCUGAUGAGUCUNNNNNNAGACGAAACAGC

variants of: B1; assay: normalized RNA/DNA level without ligand (relative to sTRSVctl = 100) (log10 (% of sTRSVctl)); HEK293T overexpressing SLC46A1; higher = less ribozyme self-cleavage, higher mRNA level; settings: without (6R,S)-folinic acid; ligand present: no
QUANTITY MEASURED: normalized RNA/DNA level without ligand (log10)

Examples with their reported normalized RNA/DNA level without ligand (log10) follow.
variant_id=AUUCUA observed=2
variant_id=AGGACG observed=1.96

normalized RNA/DNA level without ligand (log10) reported for this variant "CCUUUU" : 2.03

normalized RNA/DNA level without ligand (log10) reported for this variant "AGGGGG" : 1.98

normalized RNA/DNA level without ligand (log10) reported for this variant "AGACUC" : 2.04

normalized RNA/DNA level without ligand (log10) reported for this variant "UACAAA" : 1.95

normalized RNA/DNA level without ligand (log10) reported for this variant "UGCUAC" : 2.02

normalized RNA/DNA level without ligand (log10) reported for this variant "GAUACG" : 1.97

normalized RNA/DNA level without ligand (log10) reported for this variant "UUCCUA" : 2.02

normalized RNA/DNA level without ligand (log10) reported for this variant "AGGGUC" : 2.05

normalized RNA/DNA level without ligand (log10) reported for this variant "GGACUG" : 2

normalized RNA/DNA level without ligand (log10) reported for this variant "GAAUUA" : 2.01

normalized RNA/DNA level without ligand (log10) reported for this variant "CGCACG" : 2.05
